# assayTarget: human GPR40 (Homo sapiens)
# Sequence (O14842 whole entry): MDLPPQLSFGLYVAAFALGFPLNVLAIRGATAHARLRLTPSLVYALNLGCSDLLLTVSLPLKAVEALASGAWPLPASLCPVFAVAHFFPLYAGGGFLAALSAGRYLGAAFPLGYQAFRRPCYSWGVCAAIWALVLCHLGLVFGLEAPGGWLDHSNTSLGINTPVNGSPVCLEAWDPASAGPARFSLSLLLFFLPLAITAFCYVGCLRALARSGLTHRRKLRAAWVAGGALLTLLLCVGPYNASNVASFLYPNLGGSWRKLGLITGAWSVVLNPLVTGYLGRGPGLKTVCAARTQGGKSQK
# assayDetails: GPR40 calcium flux assay, human GPR40
# experimentalParameters: HEK293 cells stably expressing GPR40; table does not say human or rat
Entries and their measured log10 of EC50 follow.
observable: log10 of EC50 (log10 of the value in nM)

>  <compound>
O=C(O)CCc1ccc(OCC2=C(C3CCC(F)(F)CC3)CCC2)cc1Cl [Compound 411]

>  <observable>
log10 of EC50

>  <measurement>
2.12

$$$$
>  <compound>
O=C(O)CCc1ccc(OCC2=C(CC3CCCCC3)CCC2)cc1C(F)(F)F [Compound 369]

>  <observable>
log10 of EC50

>  <measurement>
2.10

$$$$
>  <compound>
CC(C)C1=C(COc2ccc(CCC(=O)O)c(Cl)c2)CCCC1 [Compound 587]

>  <observable>
log10 of EC50

>  <measurement>
2.00

$$$$
>  <compound>
CC1CCC(COc2ccc(CCC(=O)O)cc2)=C1c1ccccc1 (stereo not drawn) [Compound 321]

>  <observable>
log10 of EC50

>  <measurement>
3.42

$$$$
>  <compound>
O=C(O)CCc1ccc(OCC2=C(C(=O)c3ccccc3)CCC2)cc1C(F)(F)F [Compound 403]

>  <observable>
log10 of EC50

>  <measurement>
3.06

$$$$
>  <compound>
CC(C)CC1=C(COc2ccc(CCC(=O)O)cc2)CCCC1 [Compound 578]

>  <observable>
log10 of EC50

>  <measurement>
3.33

$$$$
>  <compound>
Cc1cc(CCC(=O)O)ccc1OCC1=C(c2cncs2)CCC(F)(F)C1 [Compound 548]

>  <observable>
log10 of EC50

>  <measurement>
3.54

$$$$
>  <compound>
O=C(O)CCc1ccc(OCC2=C(Cc3nccs3)CCC2)cc1Cl [Compound 445]

>  <observable>
log10 of EC50

>  <measurement>
2.42

$$$$
>  <compound>
CCCCC1=C(COc2ccc(CCC(=O)O)cc2)CCC1 [Compound 365]

>  <observable>
log10 of EC50

>  <measurement>
3.00

$$$$
>  <compound>
CC(C)C1=C(COc2ccc(CCC(=O)O)c(C(F)(F)F)c2)CCCC1 [Compound 586]

>  <observable>
log10 of EC50

>  <measurement>
1.72

$$$$
>  <compound>
Cc1c(CCC(=O)O)ccc(OCC2=C(c3ccc(Cl)cc3)CCC(F)(F)CC2)c1C [Compound 616]

>  <observable>
log10 of EC50

>  <measurement>
3.55

$$$$
>  <compound>
Cc1cc(OCC2=C(C3CCCC3)CC(F)(F)C2)ccc1CCC(=O)O [Compound 441]

>  <observable>
log10 of EC50

>  <measurement>
1.54

$$$$

====

Entries and their measured EC50 follow.
# assayTarget: Human GPR120 short form (Homo sapiens, UniProt Q5NUL3)
# Construct: expressed in transfected cells
# Sequence (Q5NUL3 whole entry): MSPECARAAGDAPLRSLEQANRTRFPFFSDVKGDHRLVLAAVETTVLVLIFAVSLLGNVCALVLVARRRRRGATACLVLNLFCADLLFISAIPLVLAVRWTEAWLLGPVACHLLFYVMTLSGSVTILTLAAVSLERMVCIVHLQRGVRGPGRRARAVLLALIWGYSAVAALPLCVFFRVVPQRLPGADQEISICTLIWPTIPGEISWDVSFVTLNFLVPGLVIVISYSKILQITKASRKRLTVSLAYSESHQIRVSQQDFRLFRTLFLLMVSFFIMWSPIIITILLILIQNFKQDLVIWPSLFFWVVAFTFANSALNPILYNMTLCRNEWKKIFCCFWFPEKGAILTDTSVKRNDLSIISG
# assayDetails: Human GPR120 calcium flux assay, Procedure Calcium A (2500 cells/well)
# Format: cell-based

>  <smilesCode>
Cc1c(CCC(=O)O)ccc(OCC2=C(c3ccccc3)CCC2)c1C

>  <assayTarget>
Human GPR120 short form (Homo sapiens, UniProt Q5NUL3)

>  <unit>
nM

>  <qualifierSign>
=

>  <EC50>
301

$$$$
>  <smilesCode>
O=C(O)CCc1cc(F)c(OCC2=C(c3ccc(Cl)cc3)CCC(F)(F)C2)c(F)c1

>  <assayTarget>
Human GPR120 short form (Homo sapiens, UniProt Q5NUL3)

>  <unit>
nM

>  <qualifierSign>
=

>  <EC50>
532

$$$$
>  <smilesCode>
Cc1ccc(C2=C(COc3c(F)cc(CCC(=O)O)cc3F)CCC2)cc1

>  <assayTarget>
Human GPR120 short form (Homo sapiens, UniProt Q5NUL3)

>  <unit>
nM

>  <qualifierSign>
=

>  <EC50>
378

$$$$
>  <smilesCode>
Cc1c(CCC(=O)O)ccc(OCC2=C(c3ccc(N(C)C)cc3)CCCC2)c1C

>  <assayTarget>
Human GPR120 short form (Homo sapiens, UniProt Q5NUL3)

>  <unit>
nM

>  <qualifierSign>
=

>  <EC50>
808

$$$$
>  <smilesCode>
CCCc1ccc(C2=C(COc3ccc(CCC(=O)O)c(C)c3C)CCC2)cc1

>  <assayTarget>
Human GPR120 short form (Homo sapiens, UniProt Q5NUL3)

>  <unit>
nM

>  <qualifierSign>
>

>  <EC50>
5000

$$$$
>  <smilesCode>
Cc1c(CCC(=O)O)ccc(OCC2=C(c3ccccc3Br)CCC2)c1C

>  <assayTarget>
Human GPR120 short form (Homo sapiens, UniProt Q5NUL3)

>  <unit>
nM

>  <qualifierSign>
=

>  <EC50>
777

$$$$
>  <smilesCode>
Cc1c(CCC(=O)O)ccc(OCC2=C(c3nccs3)CCC2)c1C

>  <assayTarget>
Human GPR120 short form (Homo sapiens, UniProt Q5NUL3)

>  <unit>
nM

>  <qualifierSign>
=

>  <EC50>
760

$$$$
>  <smilesCode>
Cc1cc(CCC(=O)O)ccc1OCC1=C(c2ccc(Cl)cc2)CCCC1

>  <assayTarget>
Human GPR120 short form (Homo sapiens, UniProt Q5NUL3)

>  <unit>
nM

>  <qualifierSign>
=

>  <EC50>
255

$$$$
>  <smilesCode>
Cc1ccc(C2=C(COc3ccc(CCC(=O)O)c(C)c3C)CCC2)cc1N

>  <assayTarget>
Human GPR120 short form (Homo sapiens, UniProt Q5NUL3)

>  <unit>
nM

>  <qualifierSign>
=

>  <EC50>
2000

$$$$
